Experiment: protein stability index of a GFP-peptide fusion (GPS, HEK-293T) (PSI 1-6); higher = more stable;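 also: 24-mer peptide tiles fused after GFP, lentivirally expressed, FACS-sorted into six equal bins by GFP/DsRed ratio, decoded by Illumina sequencing, PSI is the read-weighted mean bin number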
Conditions: treatment: DMSO; c terminus: a fixed tail appended
measured.metric: protein stability index

// query Item under review: DSDDDDDVAVTVDRDRFMDEFFEQ [STX1A] . Reported protein stability index?
// result 5.36

// query Item under review: SASSSTTCCESTQRSVSDVASGST [IRX6] . Reported protein stability index?
// result 5.12

// query Item under review: MCFGPKKVKPAEAETAGAIMAFFL [SLC29A1] . Reported protein stability index?
// result 2.42

// query Item under review: RTKQVLHTFKTRFTQPLLPAFTVW [FSD1] . Reported protein stability index?
// result 2.53

// query Item under review: TLEKCEKVKTMEVTSVSIELEKNF [TRIM39] . Reported protein stability index?
// result 4.16

Please give protein stability index, item by item, for the list that follows.
1. DGSYALNGEYTLMPSPTDVVLPGA [ADAMTS4]
2. YLRSKLCSLYENDCIFDKFECAWN [PPP2R2C]
3. PAMRNSPTFKSFEERVETTVTSLK [TPD52L1]
4. TEKLKANAESSKTWLKGKFTELRL [TRIM14]
5. ECGKAFSQNSSLVQHERIHTGDKP [ZNF8]
6. ILPKELQTWVRDHHPENGEEAVTV [ZNF24]
7. FLLKFLLVGDRDVGKSEILESLQD [RAB40A]
8. SVREVTQIKCIELKSELGRKWHKA [P2RY14]

// result
[4.4, 2.81, 4.61, 2.53, 4.49, 3.92, 2.65, 2.83]
